GI50 by entry:
# Test system: M19-MEL
# assay-details: NCI tumour cell line growth inhibition, 48 h
The source made the active and inactive calls. Cut-off read from the data, not from the text of the source: active = GI50 up to about 1.1 µM and inactive = higher.

molecule	GI50
COC(=O)C(C(=O)C(=O)Nc1ccc(N)cc1[N+](=O)[O-])c1nc2ccc(Cl)cc2nc1O (stereo not given)	> 100 µM (inactive)
Cc1c(C(=O)CC(=O)C(=O)Nc2ccc(Cl)cc2)[n+]([O-])c2ccccc2[n+]1[O-]	> 100 µM (inactive)
O=C(CCc1nnc(S)[nH]1)Nc1cc(Cl)ccc1Cl	> 100 µM (inactive)
O=C1OC2(OC2c2ccccc2)c2ccccc21 (stereo not given)	> 100 µM (inactive)
[O-][S+]1C(=c2ccc(=C3Sc4ccccc4S3)cc2)Sc2ccccc21 (stereo not given)	19.7 µM (inactive)
O=C1c2ccccc2-c2ccccc2C(=O)C1(Br)Br	8.69 µM (inactive)
CN(C)C(=S)/N=c1\sn(C)/c(=N\C(=S)N(C)C)n1C	25.8 µM (inactive)
COC(=O)C12OCC34C(CC5C(C)=C(O)C(=O)CC5(C)C3C(O)C1O)OC(=O)C(OC(=O)C=C(C)C)C24 (stereo not given)	287 µM (inactive)
C/C(=C\C(C)COCc1ccccc1)[C@H](COCc1ccccc1)OCc1ccccc1 (stereo not given in full)	> 100 µM (inactive)
COC(=O)[C@H]1COC(=S)N1C(=O)[C@@H](C)[C@H](O)C(C)C	> 100 µM (inactive)

---

# Tested on: DLD-1
# assay-details: NCI tumour cell line growth inhibition, 48 h
The source made the active and inactive calls. No stated cut-off is given here; in the data, active = GI50 up to about 1.1 µM and inactive = higher.
Outcomes: T for active, F for inactive

molecule	answer-label
c1cc(-c2cn3c(n2)SCC3)ccn1	F
O=C1OCc2nc3c(c(-c4ccccc4C(F)(F)F)c21)C(=O)OC3	F
COc1ccccc1NC(=O)C1=C(C)NC(C)=C(C(=O)Nc2ccccc2OC)C1c1ccc(C(C)C)cc1	F
Cc1[nH]c2ccccc2c1C1Cc2ccccc2N1C(=O)C#Cc1ccc([N+](=O)[O-])cc1 (stereo not given)	F
COc1cc(C2c3cc4c(cc3[C@H](NC(=O)c3cccs3)C3COC(=O)[C@H]23)OCO4)cc(OC)c1OC (stereo not given in full)	T

---

# Tested on: MCF7
# assay-details: NCI tumour cell line growth inhibition, 48 h
Active and inactive are the calls of the source. Cut-off read from the data, not from the text of the source: active = GI50 up to about 1.1 µM and inactive = higher. Peptide text beside a SMILES is read from it. * marks the point of attachment. X27 = Clc1c(Cl)c(Cl)c(O*)c(Cl)c1Cl; Boc = CC(C)(C)OC(=O)*; OBn = c1ccc(CO*)cc1; Bn = c1ccc(C*)cc1
Outcomes: T (active), F (inactive)

compound	answer-label
CC(=O)Oc1cc(OC(C)=O)c2c(c1C)CC[C@@H]1[C@@H]2CC[C@]2(C)[C@@H](OC(C)=O)CC[C@@H]12	F
COC(=O)C12OCC34C(CC5C(C)=C(O)C(=O)CC5(C)C3C(O)C1O)OC(=O)C(OC(=O)C=C(C)C)C24 (stereo unspecified)	F
C=C(CO[Si](C)(C)C(C)(C)C)C(C)=O	F
c1c[nH]c(-c2ccc(-c3ccc[nH]3)c3nsnc23)c1	T
O=C1C[C@@H](c2ccccc2)NCCCCN(O)CCCN1	F
CC(C)(C)OC(=O)N1CC(CCl)c2ccc(O)cc21 (stereo unspecified)	T
COc1ccc(/C=C(\NC(=O)c2ccccc2)C(=O)NN(C)c2ccnc3cc(Cl)ccc23)cc1OC	F
CCOC(=O)c1c(NC(=O)c2ccc(OC)cc2)sc2c1CCCC2	F
CC1=C(O)C(=O)C=C2C1=CC=C1[C@@]2(C)CC[C@@]2(C)[C@@H]3C[C@](C)(C(=O)O)CC[C@]3(C)CC[C@]12C [CELASTROL]	T
COc1ccccc1C[C@@H]1OC2(C=CC(=O)CC2SC(=O)c2ccccc2)O[C@H]1Cc1ccccc1OC (stereo partly specified)	T
O=C(OC[C@H]1C[C@H]2C(=O)OCCC[C@H]2O1)c1ccccc1	F
O=C(N/N=C\c1cccs1)c1ccncc1	F
Cc1csc2c(P(=O)(OC(C)C)OC(C)C)c(-c3ccccc3)cn12	F
Cc1cc(=O)n2nc(CSc3nnc(N)s3)sc2n1	F
CSC1=N/C(=C\c2ccc(Cl)cc2)C(=O)N1CN1CCCCC1	F
Cc1cn([C@H]2C[C@@H](N3C(=O)c4ccccc4C3=O)[C@@H](CO[Si](C)(C)C(C)(C)C)O2)c(=O)[nH]c1=O	F
CC(C)CC(NC(=O)C(CCC(=O)OCc1ccccc1)NC(=O)OC(C)(C)C)C(=O)NC(COCc1ccccc1)C(=O)NC(Cc1ccccc1)C(=O)Oc1c(Cl)c(Cl)c(Cl)c(Cl)c1Cl (stereo unspecified) (Boc-E(OBn)LS(Bn)F-X27; configuration not given here)	F
CC(=O)OCC1OC(n2c(N)c(C#N)c(-c3ccc(C)cc3)c(C#N)c2=S)C(OC(C)=O)C(OC(C)=O)C1OC(C)=O (stereo unspecified)	F
CN(C)c1ccc(/C=C2\N=C(c3ccc([N+](=O)[O-])cc3)OC2=O)cc1	F
CN(C)c1ccc(/C=C(\NC(=O)c2ccccc2)C2NC(Cc3c[nH]c4ccccc34)C(=O)O2)cc1 (stereo unspecified)	F
C/C1=C/C2=CC(C)C[C@@H]2C(=O)[C@]2(C)C(=O)CC(C)(C)[C@H]2CC1=O (stereo partly specified)	F
CCc1cc2c(c3c1CCC3=O)CC1(Cc3ccc(C)cc3C1)C2 (stereo unspecified)	F
COc1cc2c3c(c1OC)-c1cc4c(cc1CC3(C#N)N(C(=O)c1ccccc1)CC2)OCO4 (stereo unspecified)	F
COC(=O)CN(CC1O[C@@H]2OC(C)(C)O[C@@H]2C1NC(C)=O)C(=O)OCc1ccccc1 (stereo partly specified)	F
O=c1[nH]c2nc[nH]c2c(=O)n1C1CCCCC1	F
O=c1c(C(c2cccnc2)c2c(O)oc3cc(O)ccc3c2=O)c(O)oc2cc(O)ccc12	F
Cc1cc(/N=C2\C=C(Nc3cc(C)on3)C(=O)c3ccccc32)no1	F
Nc1nccc(NCC2(CO)CC(CCc3ccccc3)C2)n1 (stereo unspecified)	F
COC(=O)/C=C(\CC(=O)OC)n1nnnc1[C@@H]1C[C@H](COC(c2ccccc2)(c2ccccc2)c2ccccc2)[C@H]2OC(C)(C)O[C@H]21	F
NNC(=O)Cc1cccnc1	F
O=c1[nH]c(=O)n(C2CC(O)C(COP(=O)(OCC(Cl)(Cl)Cl)OCC(Cl)(Cl)Cl)O2)cc1F (stereo unspecified)	T
O=c1n(-c2ccccc2)c(=O)n2n1C1CCC2CC1	F
Cc1cc2c(cc1-c1cc3c(cc1C)C(C(C)C)=C(O)C(=O)/C3=C\Nc1ccccn1)/C(=C/Nc1ccccn1)C(=O)C(O)=C2C(C)C	F
CSc1cc(Cl)c(C)cc1S(=O)(=O)NC(=O)NNc1cccc(C(F)(F)F)n1	F
[O-][Cl+3]([O-])([O-])[O-].[O-][Cl+3]([O-])([O-])[O-].c1ccn2c(N3CCOCC3)[n+]3c4ccccc4[n+]4c(N5CCOCC5)n5ccccc5c4c3c2c1	F
Cc1nc2cccc(F)c2c(=O)n1-c1nnc(C(F)(F)F)s1	F

---

# System: SF-539
# assay-details: NCI tumour cell line growth inhibition, 48 h
Active and inactive are the calls of the source. Cut-off read from the data, not from the text of the source: active = GI50 up to about 1.1 µM and inactive = higher.
readout-kind: GI50

compound	readout-kind	recorded-result
COC(=O)/C=C/C1(O)C=CC(=O)C=C1	GI50	2.15 µM (inactive)
COc1cc2c3c(c1OC)-c1cc4c(cc1CC3(C#N)N(C(=O)c1ccccc1)CC2)OCO4 (stereo not given)	GI50	17.7 µM (inactive)
O=C1/C(=C2\SCC(=O)N2c2ccccc2)SC(=S)N1c1ccccc1	GI50	26.4 µM (inactive)
CC1(c2cccc(C3CCC4(C=CC3=O)OCCO4)c2)OCCO1 (stereo not given)	GI50	14.8 µM (inactive)
O[C@@H]1[C@H](OC2c3ccccc3-c3ccccc32)[C@H](OCc2ccccc2)[C@@H]2OC[C@H]1O2	GI50	23 µM (inactive)
CC1(C)OCC2OC3([C@H]4OC(C)(C)O[C@@H]4CO)OC(C)(C)OC3C2O1 (stereo not given in full)	GI50	> 100 µM (inactive)
COC(=O)C(c1n[nH]c2ccccc12)C(C(=O)OC)c1n[nH]c2ccccc12 (stereo not given)	GI50	17 µM (inactive)
CC(=O)OCC1OC(n2c(N)c(C#N)c(-c3ccc(C)cc3)c(C#N)c2=S)C(OC(C)=O)C(OC(C)=O)C1OC(C)=O (stereo not given)	GI50	4.91 µM (inactive)
O=C1OCc2nc3c(c(-c4ccccc4C(F)(F)F)c21)C(=O)OC3	GI50	> 100 µM (inactive)
CC(C)C1OC23CCCCC2C(C#N)(C#N)C1(C#N)C(=N)O3 (stereo not given)	GI50	18 µM (inactive)

---

# Tested on: SNB-78
# assay-details: NCI tumour cell line growth inhibition, 48 h
Active and inactive are the calls of the source. No stated cut-off is given here; in the data, active = GI50 up to about 1.1 µM and inactive = higher.
Possible outcomes: YES (active), NO (inactive)

compound	measured-target	answer-label
CC(C)N(C(=O)C12C3C4C5(C#N)C3C1(C#N)C5C42I)C(C)C (stereo not given)	SNB-78	NO
CC1OC(OC2CC(O)(C(=O)CO)Cc3c(O)c4c(c(O)c32)C(=O)c2ccccc2C4=O)CC(N)C1O (stereo not given)	SNB-78	YES
Cc1c(Cl)ccc2c1NC(=O)C2(O)CC(=O)c1ccc(Cl)cc1Cl (stereo not given)	SNB-78	NO
COC(=O)C(=O)C(/C(=N/N)C(=O)Nc1ccccc1C(N)=O)c1nc2ccc([N+](=O)[O-])cc2nc1O (stereo not given)	SNB-78	NO
O=C(CC1OC(O)C(Cl)=C1Cl)c1cccnc1 (stereo not given)	SNB-78	NO
O=C(CC1Sc2ccccc2NC1=O)Nc1cc(Cl)ccc1Cl (stereo not given)	SNB-78	NO
Cc1nc(N)nc(N)c1-c1ccc(Cl)c(Cl)c1 [METOPRINE]	SNB-78	NO
COc1ccc(OC)c(CCc2cc(OC)c(OC)cc2C)c1	SNB-78	NO
Nc1nc2c(ncn2CCOC(c2ccccc2)P(=O)(O)O)c(=O)[nH]1 (stereo not given)	SNB-78	NO
CC(C)NC(=O)OCc1nnn2c1C(OC(=O)NC(C)C)CC2 (stereo not given)	SNB-78	NO
Cc1cccc(C(C)(C)C)c1NC(=O)CC1C(=O)Nc2ccccc2S1(=O)=O (stereo not given)	SNB-78	NO
COc1ccc(C2=Nc3ccccc3SC(C)C2)cc1 (stereo not given)	SNB-78	NO
O=C1C(c2ccccc2)=C(c2ccccc2)C(c2ccc(CCCCCCc3ccc(C4=C(c5ccccc5)C(=O)C(c5ccccc5)=C4c4ccccc4)cc3)cc2)=C1c1ccccc1	SNB-78	NO
CCOC(=O)c1nn2c(nc1=O)sc1ccc3ccccc3c12	SNB-78	NO
CC(=O)OC(C)(C)/C=C/C(=O)[C@](C)(O)[C@H]1[C@H](O)C[C@@]2(C)[C@@H]3CC=C4[C@@H](C[C@H](O)[C@H](O)C4(C)C)[C@]3(C)C(=O)C[C@]12C	SNB-78	YES
